Biological target: CDK4/Cyclin D3 complex (Homo sapiens)
Sequence (P11802 whole entry): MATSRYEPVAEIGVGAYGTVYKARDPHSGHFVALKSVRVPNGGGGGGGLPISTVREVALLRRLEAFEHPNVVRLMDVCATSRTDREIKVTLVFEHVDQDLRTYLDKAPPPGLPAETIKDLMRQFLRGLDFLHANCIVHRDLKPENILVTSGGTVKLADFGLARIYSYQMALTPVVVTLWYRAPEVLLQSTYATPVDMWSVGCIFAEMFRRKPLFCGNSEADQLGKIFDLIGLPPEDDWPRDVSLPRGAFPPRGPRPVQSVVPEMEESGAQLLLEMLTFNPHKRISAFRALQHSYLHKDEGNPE
Sequence (P30281 whole entry partner): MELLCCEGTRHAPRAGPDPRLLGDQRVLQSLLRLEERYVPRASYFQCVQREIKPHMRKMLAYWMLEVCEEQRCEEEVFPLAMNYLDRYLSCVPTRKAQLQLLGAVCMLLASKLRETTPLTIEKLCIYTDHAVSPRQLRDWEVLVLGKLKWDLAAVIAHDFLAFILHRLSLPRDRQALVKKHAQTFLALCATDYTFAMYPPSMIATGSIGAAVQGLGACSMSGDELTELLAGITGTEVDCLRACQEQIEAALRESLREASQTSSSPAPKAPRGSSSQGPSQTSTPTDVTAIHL
Settings: read-out: CDK4 * (Ki, cell in µM); Table 1
Parameter measured: Ki

Molecule	Subject of test	Parameter measured	Reported result
C(=C\c1n[nH]c2cc(Sc3ccccc3)ccc12)/c1ccccc1 [8(c)]	CDK4/Cyclin D3 complex (Homo sapiens)	Ki	> 100 µM

Here is the next item to consider.
Lab book: Ki of C(=C\c1n[nH]c2cc(Oc3ccccc3)ccc12)/c1ccccc1 [8(a), 3-(E-styryl)-6-phenoxy-1H-indazole] noted as > 100 µM

---

Details: mouse, in vivo, ip, 25 mg/kg, pH 2.3
List of T1/2 values.
Give the value; after it, write the unit.

Compound	Reported result
O=C(NNC(=O)c1ccccc1Sc1ccc2c(/C=C/c3ccccn3)n[nH]c2c1)c1cccs1 [35 (m)]	4.0 h
Cc1cc(C(=O)Nc2cccc(C(=O)c3ccc4c(/C=C/c5ccccn5)n[nH]c4c3)c2)n[nH]1 [41 (g)]	0.3 h
C=CCONC(=O)c1ccccc1Sc1ccc2c(/C=C/c3ccccn3)n[nH]c2c1 [35 (j)]	1.3 h

Lab book: T1/2 of CCONC(=O)c1ccccc1Sc1ccc2c(/C=C/c3ccccn3)n[nH]c2c1 [35 (dd)] noted as 4.1 h

---

Assay: in vitro
Assay type: in vitro ADME, human
Conditions: human liver microsomes, 5 µM test compound, 37 °C, 2 h
Parameter measured: % remain (HLM, 2 h) (%)
Reply with just the number (in %).

# example entries with known answers
Compound	Reported result
Cn1ccnc1C(=O)Nc1cccc(Oc2ccc3c(/C=C/c4ccccn4)n[nH]c3c2)c1 [Reference Example 31(e)]	49
O=C(c1cccc(NC(=O)c2ccc(Cl)s2)c1)c1ccc2c(/C=C/c3ccccn3)n[nH]c2c1 [Reference Example 41(o)]	94
COc1cc(-c2ccc3c(/C=C/c4ccc(OC)c(OC)c4)n[nH]c3c2)ccc1O [1(a)]	98

Here is the next item to consider.
Lab book: % remain (HLM, 2 h) of O=C(Nc1cccc(Oc2ccc3c(/C=C/c4ccccn4)n[nH]c3c2)c1)c1ccccc1 [Reference Example 31(a)] noted as 58

---

Target: CDK2/Cyclin A complex (Homo sapiens, UniProt P24941)
Experiment: CDK2/Cyclin A assay ([32P]ATP incorporation into Rb fragment)
Type: biochemical
Conditions: read-out: CDK2 * (% inhibition)
// label = met if inhibition at 1 µM is not less than 5%, otherwise not met

For orientation, consider the following solved cases.
Compound	Label class
C=CCn1nc(C)cc1C(=O)Nc1cccc(C(=O)c2ccc3c(/C=C/c4ccccn4)n[nH]c3c2)c1 [Reference Example 41(t)]	not met
O=C(NNc1ccccn1)c1ccccc1Sc1ccc2c(/C=C/c3ccccn3)n[nH]c2c1 [Reference Example 35(n)]	not met
Oc1ccc(-c2ccc3c(/C=C/c4ccccc4)n[nH]c3c2)cc1O [Reference Example 28(d)]	met
CCCn1nc(C)cc1C(=O)Nc1cccc(C(=O)c2ccc3c(/C=C/c4ccccn4)n[nH]c3c2)c1 [Reference Example 41(r)]	not met
CCOc1cc(CO)c(-c2ccc3c(-c4nc5ccccc5[nH]4)n[nH]c3c2)cc1OC [Reference Example 24(m)]	met

Then this compound:
Exam item: decide whether the reported inhibition at 1 µM for CCn1nc(C)cc1C(=O)Nc1cccc(C(=O)c2ccc3c(/C=C/c4ccccn4)n[nH]c3c2)c1 [Reference Example 41(a)] is at least 5%.
not met
